Test system: mechanical hyperalgesia associated with STZ-induced diabetes
PROCEDURE DETAILS: STZ-induced diabetes mechanical hyperalgesia (neuropathic pain)
Assay type: in vivo, rat
TEST CONTEXT: 3 mg/Kg i.p.; 3 hrs.
Structures can show the parent of a compound that is named as a salt.
OUTCOME MEASURE: MPE 3 hrs. (%)
# unit: % | format: bare number

COc1cccc(C2(O)CCCCC2CN(C)C)c1 (stereo not shown) [Tramadol, reference compound] : 7
CC(=N)Nc1ccc2nc(-c3ccc4c(c3)OCO4)ccc2c1 [Example 2, dihydrochloride] : 8

Asked: Given the compound CC(=N)Nc1ccc2nc(-c3ccc4c(c3)OCO4)ncc2c1 [Example 1] , what is its reported MPE 3 hrs.?
Given back: 45

Asked: Another compound to check: CN(C)CCC=C1c2ccccc2CCc2ccccc21 [Amitriptyline, reference compound]
Given back: 5

Origin of the recorded values: patent US7968558B2
